- Test system: Abeta 40
- Method Notes: In vivo inhibition of beta-secretase: Abeta 40 reduction in CSF and brain of the rat
- Assay Context: Abeta 40, rat brain, 10 mpk, after 4 hrs; read-out: % reduction of rat brain levels at 10 mpk
Readout Type: inhibition in vivo at 10 mg/kg (%)
Respond with the bare value in %.

[[record]]
compound = "COc1cnc(C(=O)Nc2ccc3c(c2)[C@@]2(CCOC(N)=N2)c2cc(C4CC4)ncc2O3)cn1 [Example 80]"
readout_type = "inhibition in vivo at 10 mg/kg"
u = "%"
number = 80

[[record]]
compound = "COc1cnc(C(=O)Nc2ccc3c(c2)[C@@]2(CCSC(N)=N2)c2cc(C4=CCOCC4)nc(F)c2O3)cn1 [Example 67]"
readout_type = "inhibition in vivo at 10 mg/kg"
u = "%"
number = 58

[[record]]
compound = "NC1=N[C@@]2(CCO1)c1cc(NC(=O)c3ccc(Cl)cn3)ccc1Oc1ncc(C3=CCOCC3)cc12 [Example 45]"
readout_type = "inhibition in vivo at 10 mg/kg"
u = "%"
number = 14


Look up and state reported inhibition in vivo at 10 mg/kg for COc1cnc(C(=O)Nc2ccc3c(c2)[C@@]2(CCSC(N)=N2)c2cc(C4=CCCOC4)ncc2O3)cn1 [Example 104] 43

Look up and state reported inhibition in vivo at 10 mg/kg for COc1cnc(C(=O)Nc2ccc3c(c2)[C@@]2(CCOC(N)=N2)c2cc(C4=CCCOC4)ncc2O3)cn1 [Example 58] 36

Look up and state reported inhibition in vivo at 10 mg/kg for NC1=N[C@@]2(CCO1)c1cc(NC(=O)c3ccc(Cl)cn3)ccc1Oc1cnc(C3=CCCOC3)cc12 [Example 59] 50

Look up and state reported inhibition in vivo at 10 mg/kg for COc1ccc(C(=O)Nc2ccc3c(c2)[C@@]2(CCOC(N)=N2)c2cc(-c4cncc(F)c4)nc(F)c2O3)nc1 [Example 87] 53

Look up and state reported inhibition in vivo at 10 mg/kg for COc1cnc(C(=O)Nc2ccc3c(c2)[C@@]2(CCSC(N)=N2)c2cc(C4=CCCOC4)nc(F)c2O3)cn1 [Example 66] 66

Look up and state reported inhibition in vivo at 10 mg/kg for COc1cnc(C(=O)Nc2ccc3c(c2)[C@@]2(CCOC(N)=N2)c2cc(-c4cncc(F)c4)nc(F)c2O3)cn1 [Example 70] 59

Look up and state reported inhibition in vivo at 10 mg/kg for NC1=N[C@@]2(CCO1)c1cc(NC(=O)c3ccc(Cl)cn3)ccc1Oc1ncc(C3CC3)cc12 [Example 73] 7

Look up and state reported inhibition in vivo at 10 mg/kg for CC(C)(C)C#Cc1cc2c(cn1)Oc1ccc(NC(=O)c3ccc(Cl)cn3)cc1[C@@]21CCOC(N)=N1 [Example 82] 42
